What Dmax at 0.5 µM was measured for each of the following?
# system tested: MycN (Homo sapiens)
# Construct: endogenous in cells; host or cells: SK-N-BE(2)
# Sequence (P04198 whole entry): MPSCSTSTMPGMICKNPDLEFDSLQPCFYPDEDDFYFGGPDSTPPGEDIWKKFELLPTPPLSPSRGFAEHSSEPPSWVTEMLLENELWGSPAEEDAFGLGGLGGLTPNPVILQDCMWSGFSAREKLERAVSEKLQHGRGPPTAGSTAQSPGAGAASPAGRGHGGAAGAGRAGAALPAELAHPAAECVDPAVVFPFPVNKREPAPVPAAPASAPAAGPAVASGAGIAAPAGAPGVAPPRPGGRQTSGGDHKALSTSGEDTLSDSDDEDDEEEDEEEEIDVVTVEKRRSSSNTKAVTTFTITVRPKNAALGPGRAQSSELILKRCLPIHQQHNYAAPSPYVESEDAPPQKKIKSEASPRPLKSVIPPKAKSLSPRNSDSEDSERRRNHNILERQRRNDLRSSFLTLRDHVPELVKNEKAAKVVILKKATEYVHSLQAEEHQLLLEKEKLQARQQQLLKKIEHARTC
# assay details: Degradation of MycN protein in SK-N-BE(2) cells, JESS/Western blot of lysates
# Type: cell-based
# assay context: SKNBE2, 24 h, SKNBE2 cells, 24 h, 0.5 μM; read-out: % Degradation of MycN (SKNBE2) 24 h, 0.5 μM

Examples with their reported Dmax at 0.5 µM follow.
[
  {
    "compound": "CC(F)(F)CNCC12CC(C1)N(c1nccc(Nc3cc(C4CCCC4)[nH]n3)n1)C2",
    "system tested": "MycN (Homo sapiens)",
    "assay metric": "Dmax at 0.5 µM",
    "value": "< 20%"
  },
  {
    "compound": "c1cc(Nc2cc(C3CC3)[nH]n2)nc(N2C[C@H]3CNC[C@H]3C2)n1",
    "system tested": "MycN (Homo sapiens)",
    "assay metric": "Dmax at 0.5 µM",
    "value": "20 to 49%"
  },
  {
    "compound": "c1cc(Nc2cc(C3CC3)[nH]n2)nc(N2C[C@H]3CNC[C@@H]3C2)n1 (racemic)",
    "system tested": "MycN (Homo sapiens)",
    "assay metric": "Dmax at 0.5 µM",
    "value": "20 to 49%"
  },
  {
    "compound": "FC(F)(F)CNCC12CC(C1)N(c1nccc(Nc3cc(C4CCCC4)[nH]n3)n1)C2",
    "system tested": "MycN (Homo sapiens)",
    "assay metric": "Dmax at 0.5 µM",
    "value": "20 to 49%"
  }
]

Moving on to another compound below.
Which Dmax at 0.5 µM is reported for this compound? c1cc(Nc2cc(C3CCCC3)[nH]n2)nc(N2CC3(CN4CCCC4)CC2C3)n1
20 to 49%

---

Consider the following compounds; for each one, report its Dmax at 6 µM.
# system tested: MycC (Homo sapiens, UniProt P01106)
# Construct: endogenous in cells; host or cells: L363
# Sequence (P01106 whole entry): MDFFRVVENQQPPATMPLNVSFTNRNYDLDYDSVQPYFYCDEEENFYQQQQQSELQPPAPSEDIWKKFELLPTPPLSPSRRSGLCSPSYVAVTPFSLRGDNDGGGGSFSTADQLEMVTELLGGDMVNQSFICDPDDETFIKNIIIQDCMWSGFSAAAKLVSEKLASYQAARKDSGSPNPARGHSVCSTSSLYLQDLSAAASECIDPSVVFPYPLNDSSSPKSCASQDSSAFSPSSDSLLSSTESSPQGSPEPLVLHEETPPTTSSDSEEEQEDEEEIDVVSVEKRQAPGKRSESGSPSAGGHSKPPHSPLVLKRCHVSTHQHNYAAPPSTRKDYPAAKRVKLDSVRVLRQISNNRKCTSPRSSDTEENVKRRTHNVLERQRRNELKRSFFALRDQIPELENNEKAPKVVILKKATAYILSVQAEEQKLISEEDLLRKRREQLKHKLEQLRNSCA
# assay details: Degradation of MycC protein in L363 cells, JESS/Western blot of lysates
# Format: cell-based
# assay context: L-363, 24 h, L-363 cells, 24 h, 6 μM; read-out: % Degradation of MycC (L-363) 24 h, 6 μM
# Method: For L363 cells (suspension), 1E6 cells were plated into each well of a 6 well plate. For SK-N-BE(2) cells (adherent), 5E5 cells were plated into each well of a 6 well dish. […] All compounds were diluted to 10 mM in DMSO. […] Once an appropriate lysate concentration and antibody concentration was determined, samples were screened in the JESS technology (Protein Simple, San Jose, CA—https://www.proteinsimple.com/jess.html). […]

Known Dmax at 6 µM results, listed for orientation:
[
  {
    "compound": "NC[C@H]1CN(c2nccc(Nc3cc(C4CCCC4)[nH]n3)n2)CCO1",
    "assay metric": "Dmax at 6 µM",
    "value": "50 to 79%"
  },
  {
    "compound": "c1cc(Nc2cc(C3CC3)[nH]n2)nc(N2CCC3(CCNC3)C2)n1 (centres unmarked)",
    "assay metric": "Dmax at 6 µM",
    "value": "80 to 100%"
  },
  {
    "compound": "CNC[C@H]1CN(c2nccc(Nc3cc(C4CCCC4)[nH]n3)n2)C[C@H]1F",
    "assay metric": "Dmax at 6 µM",
    "value": "80 to 100%"
  },
  {
    "compound": "NC[C@@H]1CCCN(c2nccc(Nc3cc(C4CCCC4)[nH]n3)n2)C1",
    "assay metric": "Dmax at 6 µM",
    "value": "80 to 100%"
  }
]

With those in mind, consider the next compound.
Which measured Dmax at 6 µM value corresponds to CNCC12CC(C1)N(c1ncc(C)c(Nc3cc(C4CCCC4)[nH]n3)n1)C2 ?
80 to 100%

---

# system tested: MycC (Homo sapiens, UniProt P01106)
# Construct: endogenous in cells; host or cells: L363
# assay details: Degradation of MycC protein in L363 cells, JESS/Western blot of lysates
# Format: cell-based
# assay context: L-363, 24 h, L-363 cells, 24 h, 0.5 μM; read-out: % Degradation of MycC (L-363) 24 h, 0.5 μM
assay metric: Dmax at 0.5 µM

[
  {
    "compound": "CNC[C@@H]1CCN(c2nccc(Nc3cc(C4CCCC4)[nH]n3)n2)C1 [Compound 36]",
    "system tested": "MycC (Homo sapiens, UniProt P01106)",
    "Dmax at 0.5 µM": "< 20%"
  },
  {
    "compound": "CN1CCC2(C1)CN(c1nccc(Nc3cc(C4CC4)[nH]n3)n1)C2 [Compound 26]",
    "system tested": "MycC (Homo sapiens, UniProt P01106)",
    "Dmax at 0.5 µM": "20 to 49%"
  },
  {
    "compound": "CN(C)C[C@H]1CCN(c2nccc(Nc3cc(C4CCCC4)[nH]n3)n2)C1 [Compound 111]",
    "system tested": "MycC (Homo sapiens, UniProt P01106)",
    "Dmax at 0.5 µM": "< 20%"
  },
  {
    "compound": "c1cc(Nc2cc(C3CC3)[nH]n2)nc(N2CCC3(CCNC3)C2)n1 (centres unmarked) [Compound 42]",
    "system tested": "MycC (Homo sapiens, UniProt P01106)",
    "Dmax at 0.5 µM": "< 20%"
  },
  {
    "compound": "CN1CC2(CCN(c3nccc(Nc4cc(C5CCCC5)[nH]n4)n3)C2)C1 [Compound 85]",
    "system tested": "MycC (Homo sapiens, UniProt P01106)",
    "Dmax at 0.5 µM": "< 20%"
  },
  {
    "compound": "NC[C@@H]1CCN(c2nccc(Nc3cc(C4CCCC4)[nH]n3)n2)C1 [Compound 110]",
    "system tested": "MycC (Homo sapiens, UniProt P01106)",
    "Dmax at 0.5 µM": "< 20%"
  },
  {
    "compound": "NC[C@H]1CCCN(c2nccc(Nc3cc(C4CC4)[nH]n3)n2)C1 [Compound 29]",
    "system tested": "MycC (Homo sapiens, UniProt P01106)",
    "Dmax at 0.5 µM": "20 to 49%"
  },
  {
    "compound": "CS(=O)(=O)CCNCC12CC(C1)N(c1nccc(Nc3cc(C4CCCC4)[nH]n3)n1)C2 [Compound 68]",
    "system tested": "MycC (Homo sapiens, UniProt P01106)",
    "Dmax at 0.5 µM": "< 20%"
  },
  {
    "compound": "c1cc(Nc2cc(C3CC3)[nH]n2)nc(N2CC3(CCNC3)C2)n1 [Compound 25]",
    "system tested": "MycC (Homo sapiens, UniProt P01106)",
    "Dmax at 0.5 µM": "< 20%"
  },
  {
    "compound": "CNC[C@H]1CCCN(c2nccc(Nc3cc(C4CC4)[nH]n3)n2)C1 [Compound 16]",
    "system tested": "MycC (Homo sapiens, UniProt P01106)",
    "Dmax at 0.5 µM": "< 20%"
  }
]

Fill in Dmax at 0.5 µM for each of the 3 compounds listed.
1. CNCC12CCC(C1)N(c1nccc(Nc3cc(C4CCCC4)[nH]n3)n1)C2 (centres unmarked) [Compound 114]
2. NC[C@H]1CN(c2nccc(Nc3cc(C4CCCC4)[nH]n3)n2)C[C@H]1F [Compound 123-2]
3. CN1C[C@@H]2CN(c3nccc(Nc4cc(C5CC5)[nH]n4)n3)C[C@@H]2C1 [Compound 15]

["80 to 100%", "20 to 49%", "< 20%"]

// for each compound in input: emit Dmax at 0.5 µM
1. CN1CC2(C1)CN(c1nccc(Nc3cc(C4CC4)[nH]n3)n1)C2 [Compound 4]
2. CN1CC(C2CCN(c3nccc(Nc4cc(C5CCCC5)[nH]n4)n3)C2)C1 (centres unmarked) [Compound 27]
3. c1cc(Nc2cc(C3CCCC3)[nH]n2)nc(N2CCC(C3CNC3)C2)n1 (centres unmarked) [Compound 28]
4. NC[C@@H]1CN(c2nccc(Nc3cc(C4CCCC4)[nH]n3)n2)C[C@@H]1F [Compound 123-1]
5. CN(C)CC1CCN(c2nccc(Nc3cc(C4CC4)[nH]n3)n2)CC1 [Compound 5]

1. < 20%
2. < 20%
3. < 20%
4. < 20%
5. < 20%

Look at each compound and report its Dmax at 0.5 µM.
1. CNCC12CCC(C1)N(c1nccc(Nc3cc(C4CC4)[nH]n3)n1)C2 (centres unmarked) [Compound 45]
2. c1cc(Nc2cc(C3CC3)[nH]n2)nc(N2CCC3(CNC3)C2)n1 [Compound 2]
3. CN1CC2(CCCN(c3nccc(Nc4cc(C5CC5)[nH]n4)n3)C2)C1 [Compound 43]
4. O=C1c2ccccc2C(=O)N1CC12CC(CN(c3nccc(Nc4cc(C5CC5)[nH]n4)n3)C1)C2 [Compound 126]
5. NCC1CN(c2nccc(Nc3cc(C4CCCC4)[nH]n3)n2)CC1(F)F (centres unmarked) [Compound 125]
6. NC[C@@H]1CCCN(c2nccc(Nc3cc(C4CCCC4)[nH]n3)n2)C1 [Compound 109]

1: 80 to 100%; 2: 20 to 49%; 3: 20 to 49%; 4: 80 to 100%; 5: 20 to 49%; 6: < 20%

Count: 2. Required value per item: Dmax at 0.5 µM.
1. CC(F)(F)CNCC12CC(C1)N(c1nccc(Nc3cc(C4CCCC4)[nH]n3)n1)C2 [Compound 103]
2. CC1(NCC23CC(C2)N(c2nccc(Nc4cc(C5CCCC5)[nH]n4)n2)C3)COC1 [Compound 69]

["< 20%", "< 20%"]
